The values you see were collected from ChEMBL document CHEMBL1961873.

- TESTED_ON: Tyrosine-protein kinase TXK (Homo sapiens) (UniProt P42681)
- Sequence (P42681 whole entry): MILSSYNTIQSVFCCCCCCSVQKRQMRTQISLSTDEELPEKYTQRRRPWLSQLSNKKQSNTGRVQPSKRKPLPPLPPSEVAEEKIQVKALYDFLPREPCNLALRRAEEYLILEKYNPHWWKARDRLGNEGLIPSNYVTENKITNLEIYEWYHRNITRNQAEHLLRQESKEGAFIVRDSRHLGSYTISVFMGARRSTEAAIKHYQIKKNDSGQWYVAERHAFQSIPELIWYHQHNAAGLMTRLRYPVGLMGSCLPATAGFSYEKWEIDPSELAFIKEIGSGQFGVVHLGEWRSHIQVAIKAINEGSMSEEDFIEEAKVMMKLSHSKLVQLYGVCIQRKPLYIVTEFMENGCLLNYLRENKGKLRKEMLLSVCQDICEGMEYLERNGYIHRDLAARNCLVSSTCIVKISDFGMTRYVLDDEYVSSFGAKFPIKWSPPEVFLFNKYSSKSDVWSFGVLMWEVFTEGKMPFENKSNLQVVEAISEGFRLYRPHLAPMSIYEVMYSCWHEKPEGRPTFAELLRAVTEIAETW
- CONDITION_LABEL: at 1 µM
I'd appreciate it if you could supply inhibition values for the items below.
I'd appreciate it if you wrote the number followed by its unit.

Some compounds with recorded inhibition:
[[record]]
molecule = "CCS(=O)(=O)c1ccc(OC)c(Nc2ncc(-c3ccccc3Cl)o2)c1"
readout = "inhibition"
measurement = "10.3%"

[[record]]
molecule = "CN(c1ccc(NC(=O)Nc2c(Cl)cccc2Cl)cc1)c1ccnc(Nc2cccc(CS(C)(=O)=O)c2)n1"
readout = "inhibition"
measurement = "21.1%"

[[record]]
molecule = "Fc1ccc(-c2ncn(CCCN3CCOCC3)c2-c2ccncc2)cc1"
readout = "inhibition"
measurement = "2%"

[[record]]
molecule = "COc1cc2ncn(-c3cc(OCCc4ccccc4)c(C(N)=O)s3)c2cc1OC"
readout = "inhibition"
measurement = "3.1%"

[[record]]
molecule = "COc1cc(Nc2ncc(-c3ccccc3)o2)cc(OC)c1OC"
readout = "inhibition"
measurement = "16.2%"


Continue with the next compound.
Give inhibition for the following compound: `CS(=O)(=O)CCNCc1cc(-c2cc3c(Nc4ccc(OCc5cccc(F)c5)c(Cl)c4)ncnc3s2)cs1`
6.57%

* * *

- TESTED_ON: Ephrin type-A receptor 2 (Homo sapiens)
- CONDITION_LABEL: at 0.1 µM
READOUT: inhibition (%)
One number for each entry, in %.

Some compounds with recorded inhibition:
[[record]]
compound = "COc1cc(Nc2ncc3c(C)nc(-c4cccc(Oc5ccccc5)c4)n3n2)cc(OC)c1OC"
tested_on = "Ephrin type-A receptor 2 (Homo sapiens)"
measurement = 1.16

[[record]]
compound = "N#Cc1ccc(Oc2nccc(-c3c(-c4ccc(F)cc4)ncn3C3CCNCC3)n2)cc1"
tested_on = "Ephrin type-A receptor 2 (Homo sapiens)"
measurement = 0.81

[[record]]
compound = "NS(=O)(=O)c1ccc(N/N=C2\\C(=O)Nc3ccc(C(=O)NCCCn4ccnc4)cc32)cc1"
tested_on = "Ephrin type-A receptor 2 (Homo sapiens)"
measurement = 0.32

[[record]]
compound = "COc1cc2ncn(-c3cc(OCc4ccccc4C(F)(F)F)c(C(C)=O)s3)c2cc1OC"
tested_on = "Ephrin type-A receptor 2 (Homo sapiens)"
measurement = 1.98

[[record]]
compound = "Fc1ccc(-c2nc3n(c2-c2ccncc2)CCS3)cc1"
tested_on = "Ephrin type-A receptor 2 (Homo sapiens)"
measurement = -3.82


The following compounds each have a reported value; give each one's inhibition.
1. COc1ccc2cc(-c3c(-c4ccncc4)nc(-c4ccc([S+](C)[O-])cc4C)n3C)ccc2c1 (centres undefined)
2. Fc1ccc(-c2ncn(C3CCNCC3)c2-c2ccnc(Oc3ccc(Oc4ccccc4)cc3)n2)cc1
3. O=C1Nc2ccc(I)cc2C1=Cc1cc(Br)c(O)c(Br)c1
4. CN(c1ccc(NC(=O)Nc2c(Cl)cccc2Cl)cc1)c1ccnc(Nc2cccc(CS(C)(=O)=O)c2)n1

1. -1.85
2. 1.86
3. 1.35
4. 3.5

* * *

- TESTED_ON: Casein kinase I isoform gamma-1 (Homo sapiens)
- CONDITION_LABEL: at 0.1 µM
READOUT: inhibition (%)
Answers are plain numbers, in %.

Some molecules with recorded inhibition:
[[record]]
molecule = "FC(F)(F)c1cccc(Nc2nccc(-c3cnn4nc(-c5ccccc5)ccc34)n2)c1"
tested_on = "Casein kinase I isoform gamma-1 (Homo sapiens)"
unit_descriptor = "%"
measurement = 2.48

[[record]]
molecule = "COc1cc(Nc2ncc3c(C)nc(-c4cccc(C(F)(F)F)c4)n3n2)cc(OC)c1OC"
tested_on = "Casein kinase I isoform gamma-1 (Homo sapiens)"
unit_descriptor = "%"
measurement = 2.94

[[record]]
molecule = "Cc1nnc(-c2ccc(C)c(-c3ccc(C(=O)NCc4ccc(Cl)cc4)cc3)c2)o1"
tested_on = "Casein kinase I isoform gamma-1 (Homo sapiens)"
unit_descriptor = "%"
measurement = 0.71

[[record]]
molecule = "COc1cccc(-n2cnc3c(N/N=C/c4ccncc4)ncnc32)c1"
tested_on = "Casein kinase I isoform gamma-1 (Homo sapiens)"
unit_descriptor = "%"
measurement = -3.8

[[record]]
molecule = "Fc1ccc(-c2c(-c3ccncc3)nc3n2CCS3)cc1"
tested_on = "Casein kinase I isoform gamma-1 (Homo sapiens)"
unit_descriptor = "%"
measurement = -1.2

[[record]]
molecule = "c1ccc(Oc2ccc(Nc3ncc(-c4ccccc4)o3)cc2)cc1"
tested_on = "Casein kinase I isoform gamma-1 (Homo sapiens)"
unit_descriptor = "%"
measurement = 0.74

[[record]]
molecule = "CCc1cccc(CC)c1/C=C/c1cncc(C(=O)NC)c1"
tested_on = "Casein kinase I isoform gamma-1 (Homo sapiens)"
unit_descriptor = "%"
measurement = 2.66

[[record]]
molecule = "Cc1ccc(C(=O)NC(C)C)cc1-c1ccc(C(=O)NCC2CC2)cc1"
tested_on = "Casein kinase I isoform gamma-1 (Homo sapiens)"
unit_descriptor = "%"
measurement = -2.95

[[record]]
molecule = "COC(=O)Nc1nc2ccc(Sc3ccc(NC(=O)Nc4cc(C(F)(F)F)ccc4F)cc3)cc2[nH]1"
tested_on = "Casein kinase I isoform gamma-1 (Homo sapiens)"
unit_descriptor = "%"
measurement = -0.12

[[record]]
molecule = "Fc1ccc(-c2nc3n(c2-c2ccncc2)CCS3)cc1"
tested_on = "Casein kinase I isoform gamma-1 (Homo sapiens)"
unit_descriptor = "%"
measurement = 0.76


The following molecules each have a reported value; give each one's inhibition.
1. CNC(=O)c1cncc(/C=C/c2c(C)cccc2C)c1
2. CCc1ccc(Oc2nccc(-c3c(-c4ccc(F)cc4)ncn3C3CCNCC3)n2)cc1

[-2.91, 3.65]

Give inhibition for the following molecule: `C/C(Nc1ccc(S(N)(=O)=O)cc1)=C1/C(=O)Nc2ccccc21`
-0.74
